system: bovine serum albumin (BSA) (Bos taurus)
Construct: purchased Merck (Darmstadt, Germany)
Sequence (P02769 25-607): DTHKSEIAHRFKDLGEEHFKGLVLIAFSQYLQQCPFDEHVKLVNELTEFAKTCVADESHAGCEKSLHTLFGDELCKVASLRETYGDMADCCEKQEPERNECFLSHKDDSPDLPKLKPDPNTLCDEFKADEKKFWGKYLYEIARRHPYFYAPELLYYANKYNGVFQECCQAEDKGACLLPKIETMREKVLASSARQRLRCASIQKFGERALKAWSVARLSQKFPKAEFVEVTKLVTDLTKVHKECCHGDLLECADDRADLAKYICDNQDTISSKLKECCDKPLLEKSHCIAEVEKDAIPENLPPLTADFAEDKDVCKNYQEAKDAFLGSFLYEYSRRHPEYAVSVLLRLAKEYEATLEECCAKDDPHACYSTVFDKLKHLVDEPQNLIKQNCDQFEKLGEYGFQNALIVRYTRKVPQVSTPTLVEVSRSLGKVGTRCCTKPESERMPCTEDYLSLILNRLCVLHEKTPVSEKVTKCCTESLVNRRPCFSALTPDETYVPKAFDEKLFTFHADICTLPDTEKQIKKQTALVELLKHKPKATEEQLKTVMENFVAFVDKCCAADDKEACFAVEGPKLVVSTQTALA
procedure.details: Fluorescence quenching of BSA by flavonoids (Stern–Volmer, binding equation, van't Hoff)
condition.summary: BSA fluorescence quenching, 25 °C, excitation 295 nm
Recorded Stern–Volmer quenching constant (Ksv), one value per entry.

In the examples that follow, each entry is paired with its recorded Stern–Volmer quenching constant (Ksv).
compound=O=c1c(-c2ccc(O)cc2)coc2cc(O)cc(O)c12 result="8.11 × 10^4 ± 0.02 L mol^−1"
compound=O=c1c(O)c(-c2ccc(O)c(O)c2)oc2cc(O)cc(O)c12 result="1.88 × 10^5 ± 0.02 L mol^−1"

Enter recorded Stern–Volmer quenching constant (Ksv) with bovine serum albumin (BSA) (Bos taurus) for O=c1c(-c2ccc(O)cc2)coc2cc(O[C@@H]3O[C@H](CO)[C@@H](O)[C@H](O)[C@H]3O)cc(O)c12 here.
3.66 × 10^4 ± 0.05 L mol^−1

Enter recorded Stern–Volmer quenching constant (Ksv) with bovine serum albumin (BSA) (Bos taurus) for O=c1c(O)c(-c2ccc(O)cc2)oc2cc(O)cc(O)c12 here.
2.23 × 10^5 ± 0.03 L mol^−1

Enter recorded Stern–Volmer quenching constant (Ksv) with bovine serum albumin (BSA) (Bos taurus) for O=c1c(O)c(-c2ccc(O)cc2O)oc2cc(O)cc(O)c12 [morin, 3,5,7,2′,4′-pentahydroxyflavone] here.
1.76 × 10^5 ± 0.03 L mol^−1
